Ref: a melting point compilation (Tetko et al.; mined from patent text by program, amines drawn as free bases though some values may be those of a salt)

melting point values for the compounds below.

Enquiry: What value of melting point has been reported for the following compound? COc1ccc(CCN(C)CCCC(C)(C(=O)OC(C)C)c2ccc(OC)c(OC)c2)cc1OC (stereo not given)
Return: 85 to 87 °C

Enquiry: melting point for Cc1onc(NS(=O)(=O)c2cccs2)c1Br ?
Return: 156 to 158 °C

Enquiry: I am curious: what melting point value has been reported for CCCCCCOc1ccc(-c2nccc(-c3cccc(F)c3F)n2)cn1 ?
Return: 110 °C

Enquiry: Any idea what its melting point is? The compound is CC(C)Oc1cc(/C=C/C(=O)O)n(Cc2ccc(C(F)(F)F)cc2Cl)n1
Return: 170 to 171 °C

Enquiry: # input compound: CCOC(=O)c1c(Cl)nc(-c2cccc([N+](=O)[O-])c2)c([N+](=O)[O-])c1C(=O)OCC ; wanted: its melting point
Return: 90 to 91 °C

Enquiry: Can you share its melting point? I mean this compound: CN1CCC(Nc2nc3ccccc3n2Cc2ccccc2)CC1
Return: 94 to 102 °C

Enquiry: Need melting point, item O=C(CCCCl)Nc1ccc2c(c1NC(=O)CCCCl)C(=O)c1ccccc1C2=O
Return: 154 to 155 °C

Enquiry: I am curious: what melting point value has been reported for NC(=O)Nc1c(C(O)(C(F)(F)F)C(F)(F)F)ccc2c1CCCC2 ?
Return: 157 to 159 °C

Enquiry: Quick check: melting point of COc1cc(C)c2ccc(N)nc2n1 ?
Return: 233 to 236 °C

Enquiry: May I ask what melting point has been recorded for CC(CCC(=O)O)C(=O)NC1(C(=O)O)CCCC1 (stereo not given) ?
Return: 170 to 172 °C

---

QUANTITY: melting point

N#CC1(Cc2ccccc2)CCN(Cc2ccccc2)CC1; 92 °C
O=S(=O)(Nc1cccc2cc(-c3nc4ccccc4s3)[nH]c12)c1cccs1; 201 to 202 °C

Enquiry: // lookup melting point for CCOc1cc(OCc2cn(-c3ccc(C(F)(F)F)cn3)nc2C)ccc1CCC(=O)O
Return: 151 to 152 °C

Enquiry: Any idea what its melting point is? The molecule is CCc1cccc(CC(=O)O)c1OCCn1cc(CCOc2ncc(C(F)(F)F)cc2Cl)c(OC(C)C)n1
Return: 76.5 to 77.5 °C

Enquiry: Give the measured melting point of COc1cccc2cc(CNCCNC(=O)C(C)(C)C)oc12 .
Return: 81 to 82 °C

---

The reader will find reported melting point values listed item by item below.

Cn1nc2c(oc3cc(Cl)ccc32)c1N; 210 to 211 °C
CCn1cc(C(=O)O)c(=O)c2cc(F)c(N3CCC(N(C)C)CC3)c(F)c21; 210 to 211 °C
CC(=O)N1CCN(C(=O)Cc2ccc(Cl)c(Cl)c2)C(CN2CCC(O)C2)C1 (stereo unspecified); 133 °C
COc1cc(OC)nc(SC2CCCC2CC(=O)O)n1 (stereo unspecified); 125 to 127 °C
C[C@@H]1CN(CCCn2c3ccccc3c3ccccc32)C[C@H](C)N1; 107 to 109 °C

Enquiry: Would you kindly share the measured melting point for NCC1Cc2cc(-c3cccc(Cl)c3)cc(F)c2O1 (stereo unspecified) ?
Return: > 250 °C

Enquiry: # get_value(readout='melting point', item= COc1ccc(C(=O)c2noc(CC#N)n2)cc1 )
Return: 92 to 94 °C

Enquiry: Please give the measured melting point for this molecule: O=C1C=C(c2ccc(C(F)(F)F)cc2C(F)(F)F)CO1
Return: 116 to 117 °C

Enquiry: Fill in: melting point of COC(=O)c1sc(C)c2[nH]c(C(F)(F)C(F)(F)C(F)(F)F)nc12 is ___
Return: 147 to 148 °C

Enquiry: What measured melting point goes with COc1cc(NC(C)=O)c(Cl)cc1C(=O)NN1CCN(CCC(C)C)CC1 ?
Return: 128 to 130 °C

Enquiry: Quick one: melting point for O=c1c2cnccc2n(-c2cccc(Cl)c2)c2ncccc12 ?
Return: 222 to 224 °C
